protocol.description: clinical
condition.context: human, plasma, intravenous, Weight-Adjusted CL, Geometric Mean (individual Bayesian estimates), Including Additional 11 Subjects; 1 month-<6 months (n = 14)
property.measured: clearance (mL/min/kg)
Numbers only, in mL/min/kg.

Input: Looking for the measured clearance of Cc1cccc([C@H](C)c2cnc[nH]2)c1C , can you help?
Output: 20.2

----------
protocol.description: clinical
condition.context: human, plasma, intravenous, Weight-adjusted Vd, Table 30 key summary (mean); Dose Level 1, LD 0.25/CD 0.2 μg/kg/hr; full evaluable population
property.measured: Vd (L/kg)
Numbers only, in L/kg.

Input: Looking for the measured Vd of Cc1cccc([C@H](C)c2cnc[nH]2)c1C [dexmedetomidine] , can you help?
Output: 2.2
